Overview of reported folding stability dG unfold across a group of sequences:
- assay.overview: folding stability dG unfold (combined trypsin and chymotrypsin); higher = more stable

[[record]]
entry_sequence = "SAGMVATLYDPNLPPVSVGITETVTVPHPEGFTVTVTLSSDGTATVTPSDGSSTTLPDASEVRVTATPASAG [r5_869_JUSTAS]"
assay_result = "1.1 kcal/mol"

[[record]]
entry_sequence = "SAGGKKVIVIEGLTEEEILEKIKEEFPEPVEVIIRRPDGYVVKITVDAKTREIKKVEVVKVPPPEKPSAGGS [r8_225_TrROS_Hall]"
assay_result = "1.79 kcal/mol"

[[record]]
entry_sequence = "SAGGSAGPMSVKEYEFEAVVPPGEEEAWVEEYIKKEFKSKIVKIEVKREKLPDGTYRVPVKITVKESAGGSA [r15_138_JUSTAS]"
assay_result = "0.775 kcal/mol"


What value of measured folding stability dG unfold is listed for SAGIEEEVRKLFPDRELEVKVKEKRLKAPNGVPVTLYEVTVTFPDGSRYKLTLTKTPNSVTLSVTPLDASAG [r14_28_JUSTAS] ?
3.18 kcal/mol

What value of measured folding stability dG unfold is listed for SAGGSKKVKIKITKIEIFPNGTIKVTVKNEDGSEVTITITKNKDGKYKIKIKNKKTKKIFEFEIPLSAGGSA [r2_361_TrROS_Hall] ?
2.8 kcal/mol

What value of measured folding stability dG unfold is listed for SAGGMIKLEFENPDGMRIKIEIDRIHRFDPDNGYLIIPVKIEVEPPGKPREIDGTIILPPGMPPGQPLSAGG [r13_823_TrROS] ?
1.43 kcal/mol

What value of measured folding stability dG unfold is listed for SAMVSPEEAAKLIAEKIREEHPDPNIVVPVKVEYDPETNTTTITVTVKYPDDPSTETFTYTLAPDDVLKSAG [r14_849_JUSTAS] ?
1.9 kcal/mol

These measurements were taken from the supplement of paper PMC12764529.
